# Test system: TK-10 renal
# procedure.details: NCI tumour cell line growth inhibition, 48 h
Quick list: TGI per entry.

Record excerpt, results attached:
                                   compound    result
0                   COC(=O)CCc1cccnc1/C=N/O  > 100 µM
1  CNC(=O)CNC(=O)C(Cc1ccc(NC(=O)CCCCC(C)=O)cc1)NC(=O)C(CCC(=O)OCc1ccccc1)NC(=O)OC(C)(C)C (stereo not drawn)  > 100 µM

// returns reported TGI for input `CC(C)(CC#N)c1cc(CC(C)(C)c2cc(CC(C)(C)c3cc(C(C)(C)C4(C)OCCO4)no3)no2)no1`
> 100 µM
